Entry source: ChEMBL document CHEMBL1149315

- target-desc: Substance-K receptor (Homo sapiens)
- Sequence (P21452 whole entry): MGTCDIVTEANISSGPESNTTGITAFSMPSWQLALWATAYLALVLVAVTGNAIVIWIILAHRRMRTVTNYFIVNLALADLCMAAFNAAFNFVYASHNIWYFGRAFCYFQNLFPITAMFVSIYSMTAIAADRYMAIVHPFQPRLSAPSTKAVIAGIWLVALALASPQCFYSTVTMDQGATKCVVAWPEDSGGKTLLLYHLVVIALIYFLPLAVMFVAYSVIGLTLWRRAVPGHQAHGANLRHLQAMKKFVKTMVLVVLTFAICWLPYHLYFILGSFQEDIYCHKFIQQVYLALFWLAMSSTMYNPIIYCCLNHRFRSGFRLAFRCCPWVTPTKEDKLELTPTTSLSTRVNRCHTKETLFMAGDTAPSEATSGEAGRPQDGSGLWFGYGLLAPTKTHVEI
- assay-explanation: Displacement of [125I]neurokinin A from human NK2 receptor expressed in CHOK1 cells
- Assay type: cell-based, CHO-K1
metric-name: Ki

Here's what some known entries look like.
O=C1CC(NC(=O)[C@@H](O)[C@H](O)[C@@H](O[C@@H]2O[C@H](CO)[C@H](O)[C@H](O)[C@H]2O)[C@@H](O)CO)C(=O)NC[C@@H](Cc2ccccc2)NC(=O)[C@H](Cc2ccccc2)NC(=O)[C@H](Cc2c[nH]c3ccccc23)N1 (stereo partly specified)	3.98 nM (antagonist)
O=C1C[C@@H](N2CCC(N3CCCCC3)CC2)C(=O)NC[C@@H](Cc2ccccc2)NC(=O)[C@H](Cc2ccccc2)NC(=O)[C@H](Cc2c[nH]c3ccccc23)N1	0.2 nM (antagonist)
N[C@@H]1CC(=O)NC[C@@H](Cc2ccccc2)NC(=O)[C@H](Cc2ccccc2)NC(=O)[C@H](Cc2c[nH]c3ccccc23)NC1=O	15.8 nM (antagonist)

Working through the 8 compounds below one at a time, give Ki for each.
1. CC(=O)N1CCN([C@@H]2CC(=O)N[C@@H](Cc3c[nH]c4ccccc34)C(=O)N[C@@H](Cc3ccccc3)C(=O)N[C@H](Cc3ccccc3)CNC2=O)CC1
2. N[C@@H]1CC(=O)N[C@@H](Cc2c[nH]c3ccccc23)C(=O)N[C@@H](Cc2ccccc2)C(=O)N[C@H](Cc2ccc(Cl)c(Cl)c2)CNC1=O
3. O=C1C[C@@H](N2CCC(N3CCOCC3)CC2)C(=O)NC[C@@H](Cc2ccccc2)NC(=O)[C@H](Cc2ccccc2)NC(=O)[C@H](Cc2c[nH]c3ccccc23)N1
4. O=C1C[C@H](NC2CCOCC2)C(=O)N[C@@H](Cc2c[nH]c3ccccc23)C(=O)N[C@@H](Cc2ccccc2)C(=O)N[C@H](Cc2ccccc2)CN1
5. O=C1C[C@@H](NC(=O)CN2CC[S+]([O-])CC2)C(=O)NC[C@@H](Cc2ccccc2)NC(=O)[C@H](Cc2ccccc2)NC(=O)[C@H](Cc2c[nH]c3ccccc23)N1
6. O=C1C[C@@H](NC[C@H](O)[C@@H](O)[C@H](O)[C@H](O)CO)C(=O)NC[C@@H](Cc2ccccc2)NC(=O)[C@H](Cc2ccccc2)NC(=O)[C@H](Cc2c[nH]c3ccccc23)N1
7. CC(=O)N[C@@H]1[C@@H](O)[C@H](O)[C@@H](CO)O[C@H]1NC(=O)C[C@H](NC(C)=O)C(=O)N[C@@H]1CC(=O)N[C@@H](Cc2c[nH]c3ccccc23)C(=O)N[C@@H](Cc2ccccc2)C(=O)N[C@H](Cc2ccccc2)CNC1=O
8. O=C1C[C@@H](N2CCOCC2)C(=O)NC[C@@H](Cc2ccc(Cl)c(Cl)c2)NC(=O)[C@H](Cc2ccccc2)NC(=O)[C@H](Cc2c[nH]c3ccccc23)N1

Ans.
1: 0.126 nM (antagonist); 2: 0.158 nM (antagonist); 3: 0.2 nM (antagonist); 4: 6.31 nM (antagonist); 5: 0.316 nM (antagonist); 6: 0.398 nM (antagonist); 7: 25.1 nM (antagonist); 8: 0.251 nM (antagonist)

---

- target-desc: Substance-K receptor (Rattus norvegicus) (UniProt P16610)
- Sequence (P16610 whole entry): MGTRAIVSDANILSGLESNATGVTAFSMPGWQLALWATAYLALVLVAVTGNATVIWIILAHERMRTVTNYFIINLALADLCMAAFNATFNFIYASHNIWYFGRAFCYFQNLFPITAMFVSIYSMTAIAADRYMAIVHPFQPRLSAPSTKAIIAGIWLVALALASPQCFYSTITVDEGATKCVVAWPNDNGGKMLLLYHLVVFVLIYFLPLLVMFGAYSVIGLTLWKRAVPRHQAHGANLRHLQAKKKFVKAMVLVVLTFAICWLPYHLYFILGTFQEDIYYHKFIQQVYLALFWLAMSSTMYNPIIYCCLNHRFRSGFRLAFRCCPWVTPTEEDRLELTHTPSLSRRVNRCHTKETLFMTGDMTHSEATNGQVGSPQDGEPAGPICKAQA
- assay-explanation: Antagonist activity at NK2 receptor in rat urinary bladder assessed as effect on beta-Ala8]NKA(4-10)-induced mechanical activity
- Format: functional
- condition-notes: filed as antagonist
Could you label it fulfilled if measured pKb is 9 or higher, and not fulfilled otherwise?

O=C1CCC(=O)N[C@@H](Cc2c[nH]c3ccccc23)C(=O)N[C@@H](Cc2ccccc2)C(=O)N[C@H](Cc2ccccc2)CN1	not fulfilled
NS(=O)(=O)N1CCC(N[C@@H]2CC(=O)N[C@@H](Cc3c[nH]c4ccccc34)C(=O)N[C@@H](Cc3ccccc3)C(=O)N[C@H](Cc3ccccc3)CNC2=O)CC1	fulfilled

Turning to the following compound.
Qu. Check if pKb >= 9 (inclusive). Item: `O=C1C[C@H](NC2CCOCC2)C(=O)N[C@@H](Cc2c[nH]c3ccccc23)C(=O)N[C@@H](Cc2ccccc2)C(=O)N[C@H](Cc2ccccc2)CN1`
Ans. not fulfilled
